- Test system: SR
- protocol summary: NCI tumour cell line growth inhibition, 48 h
Active and inactive are the calls of the source. Cut-off read from the data, not from the text of the source: active = GI50 up to about 1.1 µM and inactive = higher.
Please respond with reported GI50 for every item in the list.

query: I'd like to know its GI50. The molecule in question is ClCCCN1CCCCC1CCl (centres undefined)
result: 24.8 µM (inactive)

query: I'd like to know its GI50. The molecule in question is COC(=O)C1=C(O)C(C(=O)OC)[C@]2(O)[C@H](C(=O)OC)[C@H]1C[C@@H](c1ccc(OC)cc1)[C@H]2C(=O)OC (some centres undefined)
result: 16.1 µM (inactive)

query: I'd like to know its GI50. The molecule in question is N#Cc1c(N2CCN(c3ccc([N+](=O)[O-])cc3)CC2)[n+]([O-])c2ccccc2[n+]1[O-]
result: 1.28 µM (inactive)

query: I'd like to know its GI50. The molecule in question is Cc1ccc(S(=O)(=O)OC2=C/C(=N\c3onc(C)c3C)c3ccccc3C2=O)cc1
result: 3.01 µM (inactive)

query: I'd like to know its GI50. The molecule in question is O=[N+]([O-])/C(Cl)=C(\NCCN/C(C(Cl)=C(Cl)Cl)=C(/Cl)[N+](=O)[O-])C(Cl)=C(Cl)Cl
result: 17.1 µM (inactive)

query: I'd like to know its GI50. The molecule in question is Cc1cc(C)nc(NS(=O)(=O)c2ccc(Nc3c4ccccc4nc4c(C(=O)Nc5ccc(S(=O)(=O)Nc6cc(C)on6)cc5)ccc(Cl)c34)cc2)n1
result: 21.1 µM (inactive)

query: I'd like to know its GI50. The molecule in question is CCCCc1ccc(Nc2ncc3ncn(COCCO)c3n2)cc1
result: 17.1 µM (inactive)

query: I'd like to know its GI50. The molecule in question is Nc1n[n+]([O-])c2cnccc2[n+]1[O-]
result: 54.7 µM (inactive)

query: I'd like to know its GI50. The molecule in question is Cc1cccc2c(=O)c3cccc([C@H](C)C(=O)O)c3oc12
result: > 100 µM (inactive)

---

- System: HOP-92
- protocol summary: NCI tumour cell line growth inhibition, 48 h
The source made the active and inactive calls. Cut-off read from the data, not from the text of the source: active = GI50 up to about 1.1 µM and inactive = higher.
Thanks in advance; please answer with one of these: true (1) for active, false (0) for inactive

query: Please share the test call associated with CN1CCN(C2=C(Cl)C(=O)c3c(O)ccc(O)c3C2=O)CC1 .
result: true (1)

query: Please share the test call associated with CCOC(=O)C1=C(c2ccccc2)N(C(C)=O)Cc2ccccc21 .
result: false (0)

query: Please share the test call associated with COc1ccc(/C=C2/C(=O)N(C(=O)c3ccccc3O)N=C2C)cc1 .
result: true (1)

query: Please share the test call associated with COC(=O)C1=C(C(=O)OC)C23CC4CCC2(C(=O)C1O3)C4(C)C (stereo unspecified) .
result: false (0)

query: Please share the test call associated with CN(C)CCCn1c(Cc2ccc(Cl)cc2)nc2cc(C(F)(F)F)ccc21 .
result: false (0)

query: Please share the test call associated with c1ccc2c(c1)cc1ccc3cccc4ccc2c1c34 .
result: false (0)

query: Please share the test call associated with COc1ccc(/C=N/c2ccc(-c3nc4ccccc4s3)cc2)cc1OC .
result: false (0)

query: Please share the test call associated with CCN(CC)c1ccc(/N=C2\C=C(Cl)C(=O)c3ncccc32)c(C)c1 .
result: false (0)

query: Please share the test call associated with COc1cc(/C=C/C(=O)c2sc(NNC(C)=O)nc2C)ccc1O .
result: false (0)

query: Please share the test call associated with CSCSCC(CO)NC(=O)/C(C)=C\c1c(C)[nH]c(=O)[nH]c1=O (stereo unspecified) .
result: false (0)

query: Please share the test call associated with CC1CC2OC(=O)C(C)C2CC2(C)C(OC3OC(CO)C(O)C(O)C3O)OCCC12 (stereo unspecified) .
result: false (0)

Reference source for all entries: ChEMBL document CHEMBL1201862
